Each record here notes measured TGI.
# Test system: OVCAR-5 ovarian
# procedure_details: NCI tumour cell line growth inhibition, 48 h
recorded_metric: TGI

>>> reported_result("COc1ccc(/C=C/C(=O)c2cccc(B(O)O)c2)cc1O")
"31.6 µM"
>>> reported_result("CCCCCCC1NN(C(C)=O)C(CCCCCC)NN1C(C)=O (stereo not given)")
"> 100 µM"
>>> reported_result("COc1ccc(C2C=C(c3ccccc3)Nc3nnnn32)cc1 (stereo not given)")
"> 100 µM"
>>> reported_result("CN(C)CCNc1ccc2c(=O)n(CCN(C)C)c(=O)n3c4ccccc4c(=O)c1c23")
"5.03 µM"
>>> reported_result("C/C=N\\n1c(C)n[nH]c1=O")
"> 100 µM"
>>> reported_result("O=C1c2ccccc2C(=O)c2c(N=Nc3[nH]c(=S)[nH]c3O)cccc21")
"> 100 µM"
>>> reported_result("O=C(Nc1ccn(CCOC(=O)c2ccccc2)c(=O)n1)c1ccccc1")
"> 100 µM"
>>> reported_result("COc1ccc(/C(=N\\N=C(N)N)C(c2ccc(OC)cc2)C2OC(=O)c3ccccc32)cc1 (stereo not given)")
"> 100 µM"
>>> reported_result("Cn1c(=O)c2c(nc3sc4nc5ccccc5nc4n32)n(C)c1=O")
"> 100 µM"
>>> reported_result("Cc1cc(O)c2c3c1C(=O)Oc1c(CO)c(O)c(C(=O)O)c(c1O3)C=NN=Cc1c3c(c(CO)c(O)c1C(=O)O)OC(=O)c1c(C)cc(O)c(c1O3)C=NN=C2")
"> 100 µM"
>>> reported_result("C[C@@H](O)[C@H]1C(=O)N2C(C(=O)O)=C(SCCN=CN)C[C@H]12")
"9.44 µM"
>>> reported_result("Clc1ccc(/C=C2\\CCCC3C2=Nc2ccccc2NC3c2ccc(Cl)cc2)cc1 (stereo not given)")
"22.3 µM"
>>> reported_result("COc1cccc(/C=N/Nc2ncnc3c2cnn3-c2cccc(OC)c2)c1")
"> 25 µM"
>>> reported_result("O=Cc1cc2c(s1)C(=O)c1sccc1C2=O")
"2 µM"
>>> reported_result("C[C@]12CCC3c4ccc(O)cc4CCC3C1CC[C@@]2(O)C#Cc1ccc(C#C/C=C\\C#Cc2ccccc2N)cc1 (stereo not given in full)")
"> 100 µM"
>>> reported_result("CC(=O)[CH-]C(C)=O.CC(=O)[CH-]C(C)=O.[CH2-]CCCCCCC.[CH2-]CCCCCCC.[Sn+4]")
"37.7 µM"
>>> reported_result("CCCCOC(=O)NC(Nc1ccc(S(N)(=O)=O)cc1)(C(F)(F)F)C(F)(F)F")
"> 100 µM"
>>> reported_result("CC(C)c1cc(C(F)(F)F)nc(NNc2nc(C(C)C)cc(C(F)(F)F)n2)n1")
"> 100 µM"
>>> reported_result("CCN(CC)c1ccc(/C=C2\\SC(=O)C(Nc3nnc(-c4cccnc4SCc4ccccc4)o3)C2=O)cc1 (stereo not given)")
"> 100 µM"
>>> reported_result("CC(C)[Si]1(C(C)C)OCC2OC(N3C(=O)NC(=O)C[C@@H]3C(O)c3ccccc3)CC2O[Si](C(C)C)(C(C)C)O1 (stereo not given in full)")
"27.6 µM"
>>> reported_result("CN1CCN(CC(=O)Nc2cccc3ccccc23)CC1")
"> 100 µM"
>>> reported_result("CN(C(=O)c1ccccc1)C1CCCC(=O)CC1 (stereo not given)")
"> 100 µM"
>>> reported_result("NC(=O)C1(c2ccccc2)Nc2ccccc2S1 (stereo not given)")
"> 100 µM"
>>> reported_result("c1ccc(NNN2NC(c3ccccc3)C2c2ccccc2)cc1 (stereo not given)")
"> 100 µM"
>>> reported_result("N=C(N)SCCc1ccncc1")
"> 100 µM"
>>> reported_result("CO[C@H](C(=O)[C@@H](O)[C@@H](C)O)[C@@H]1Cc2cc3cc(O[C@H]4C[C@@H](O[C@H]5C[C@@H](O)[C@H](O)C(C)O5)[C@H](O)C(C)(O)O4)cc(O)c3c(O)c2C(=O)[C@H]1O[C@H]1C[C@@H](O[C@H]2C[C@@H](O[C@H]3C[C@@H](OC)[C@H](O)C(C)O3)[C@@H](O)C(C)O2)[C@H](O)C(C)O1 (stereo not given in full)")
"> 16.8 µM"
>>> reported_result("COc1ccc(C=Nc2c(O)ccc3ccccc23)cc1OC")
"> 100 µM"
>>> reported_result("CN(C)c1ccc(/C=C/c2ccc3ccccc3[n+]2C)cc1")
"26.2 µM"
>>> reported_result("CCOP(=O)(OCC)/C(C#N)=C/c1cnc(C)[nH]1")
"> 100 µM"
>>> reported_result("CCC(=C(C#N)C#N)c1cc(OC)c(OC)c(OC)c1")
"> 100 µM"
>>> reported_result("C[C@]12CC[C@@H]3c4cc(Br)c(O)c(Br)c4CC[C@H]3[C@@H]1CCC2=O")
"65.2 µM"
>>> reported_result("O=C(N=C1N(c2ccccc2)C(=O)C(=O)N1c1ccccc1)c1ccccc1")
"> 100 µM"
>>> reported_result("Nc1nc2c(ncn2CC2CCC(CO)C2)c(=O)[nH]1 (stereo not given)")
"> 100 µM"
>>> reported_result("FC(F)(F)c1cccc(Nc2nc3ccccc3nc2Nc2cccc(C(F)(F)F)c2)c1")
"3.39 µM"
>>> reported_result("COc1ccc2c(c1)C(=O)c1c-2n(CCCNCCO)c(=O)c2ccccc12")
"1.11 µM"
>>> reported_result("CN(C)CCCN1c2ccccc2CCc2cccc([N+](=O)[O-])c21")
"> 100 µM"
>>> reported_result("Nc1nc(N)c2cc(CNc3ccc(C(=O)NC(CC(=O)O)C(=O)O)cc3)ccc2n1 (stereo not given)")
"> 100 µM"
>>> reported_result("Nc1nc2c(nc(N)n2Cc2ccccc2)c(=O)[nH]1")
"> 100 µM"
>>> reported_result("O=C(CC1(O)C(=O)Nc2c(Cl)cc(Cl)cc21)c1ccco1 (stereo not given)")
"> 100 µM"
>>> reported_result("CC1=NN(c2nc(N)nc(/C(C#N)=C\\C3COc4ccccc4C3=O)n2)C(C)(C)C1 (stereo not given)")
"> 100 µM"
